- EXPERIMENTAL TARGET: Retinoic acid receptor RXR-alpha (Homo sapiens)
- PROTOCOL: Transactivation of RXRalpha (unknown origin) expressed in COS1 cells at 10 uM after 18 hrs by luciferase reporter gene assay relative to bexarotene
- Assay type: cell-based
- CONDITION SET: COS-1
MEASURE NAME: Efficacy (%)

Cc1cc2c(cc1-n1c(N)nc3cc(C(=O)O)ccc31)C(C)(C)CCC2(C)C    96

(P) Cc1cc2c(cc1-n1c(=S)[nH]c3cc(C(=O)O)ccc31)C(C)(C)CCC2(C)C
(Q) Cc1cc2c(cc1-n1c(=O)[nH]c3cc(C(=O)O)ccc31)C(C)(C)CCC2(C)C
## Task Just curious, which one has the larger Efficacy reading, P or Q ? Field: selected label. Fill in the label of the entry you choose.
## Result P

* * *

- EXPERIMENTAL TARGET: Retinoic acid receptor RXR-alpha (Homo sapiens)
- PROTOCOL: Partial agonist activity at RXRalpha (unknown origin) expressed in COS1 cells after 18 hrs by luciferase reporter gene assay
pEC50: −log10 of the molar value.
MEASURE NAME: pEC50

Answered examples (3):
CCN(c1ccc2c(c1)C(C)(C)CCC2(C)C)c1ccc(C(=O)O)cn1    8.42
Cc1cc2c(cc1-n1c(C)nc3cc(C(=O)O)ccc31)C(C)(C)CCC2(C)C    6.44
Cc1cc2c(cc1-n1c(N)nc3cc(C(=O)O)ccc31)C(C)(C)CCC2(C)C    6.81

(a) Cc1cc2c(cc1-n1ccc3cc(C(=O)O)ccc31)C(C)(C)CCC2(C)C
(b) Cc1cc2c(cc1-n1cnc3cc(C(=O)O)ccc31)C(C)(C)CCC2(C)C
(c) Cc1cc2c(cc1-n1c(C(F)(F)F)nc3cc(C(=O)O)ccc31)C(C)(C)CCC2(C)C
## Task Rank the items in ascending order with respect to pEC50. Note for the reader: the ranking is given by listing the labels in the order requested.
## Result b, a, c

* * *

- EXPERIMENTAL TARGET: Retinoic acid receptor RXR-alpha (Homo sapiens)
- Sequence (whole entry): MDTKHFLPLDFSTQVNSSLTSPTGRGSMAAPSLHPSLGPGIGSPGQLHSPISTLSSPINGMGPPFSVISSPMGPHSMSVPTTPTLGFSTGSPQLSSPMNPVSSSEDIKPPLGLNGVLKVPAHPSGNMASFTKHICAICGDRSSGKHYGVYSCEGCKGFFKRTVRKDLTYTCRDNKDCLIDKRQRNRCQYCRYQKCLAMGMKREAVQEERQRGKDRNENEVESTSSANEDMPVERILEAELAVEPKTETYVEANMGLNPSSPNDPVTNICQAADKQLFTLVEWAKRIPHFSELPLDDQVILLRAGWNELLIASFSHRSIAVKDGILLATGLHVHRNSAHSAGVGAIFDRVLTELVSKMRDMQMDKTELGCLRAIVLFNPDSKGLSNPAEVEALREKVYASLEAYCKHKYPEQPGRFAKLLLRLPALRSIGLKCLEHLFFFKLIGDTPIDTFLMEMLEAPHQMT
- PROTOCOL: Transactivation of RXRalpha (unknown origin) expressed in COS1 cells at 0.1 uM after 18 hrs by luciferase reporter gene assay relative to bexarotene
- Assay type: cell-based
- CONDITION SET: COS-1
MEASURE NAME: Efficacy (%)

Cc1cc2c(cc1-n1ccc3cc(C(=O)O)ccc31)C(C)(C)CCC2(C)C    45
Cc1cc2c(cc1-n1c(C(F)(F)F)nc3cc(C(=O)O)ccc31)C(C)(C)CCC2(C)C    21

(A) Cc1cc2c(cc1-n1c(C)nc3cc(C(=O)O)ccc31)C(C)(C)CCC2(C)C
(B) CCN(c1ccc2c(c1)C(C)(C)CCC2(C)C)c1ccc(C(=O)O)cn1
## Task Just curious, which one has the larger Efficacy reading, A or B ? Field: selected label. Fill in the label of the entry you choose.
## Result B
